Quick reference: growth of the listed items.
System: BT-549 breast
assay-info: NCI-60 one-dose screen, 48 h (100 = growth as untreated, 0 = no growth, -100 = all killed)
assay-setup: 10 µM unless noted
This is part of a sample that, as a whole, favours compounds with a hit. Of some 83,000 tested, about 20% had one in any assay.
quantity: growth (%)

compound	quantity	uom	observed-measurement
O=C(Nc1ccc(-c2nc(-c3cccc(OCCN4CCOCC4)c3)c(-c3ccnc(Br)c3)[nH]2)cc1)c1ccccc1	growth	%	45
Cn1cc(-c2cc3ncnc(Nc4ccc(CC(=O)Nc5cc(C(C)(C)C)on5)cc4)c3s2)cn1	growth	%	52.5
Cc1nc2ccccc2n1-c1ncnc2c1CC(C)c1ccccc1N2C (centres undefined)	growth	%	92.3
CC(=O)OC[C@H]1OC(Sc2sc(C(=O)c3ccc(Br)cc3)c(N)c2-c2nc3ccccc3s2)[C@H](OC(C)=O)[C@@H](OC(C)=O)[C@H]1OC(C)=O (some centres undefined)	growth	%	90.2
O=C(CCc1nnc(-c2c(Cl)cccc2Cl)o1)c1nc2ccccc2[nH]1	growth	%	56.3
NCCCNc1nc2ccccc2c2c(=O)c3cc(F)cc(F)c3sc12	growth	%	93.4
C=C(C)[C@@H]1CC[C@]2(N=C=O)CC[C@]3(C)[C@H](CC[C@@H]4[C@@]5(C)Cc6c([nH]c7ccccc67)C(C)(C)[C@@H]5CC[C@]43C)[C@@H]12	growth	%	84.3
COc1ccc(C2CC(c3ccc(Nc4ccnc5cc(Cl)ccc45)cc3)=NN2C=O)cc1 (centres undefined)	growth	%	63.7
COc1cc(C(=O)c2cc(C)c3[nH]c4ccc(O)cc4c3c2C)cc(OC)c1OC	growth	%	-1.57

Sourced from PubChem BioAssay (NCI)
